Origin of measurements: patent US9266930

Molecular target: HLA-DR4w4 (DRB1*0401) (human)
For each record, write down the corresponding binding affinity ratio (IC50 of standard peptide / IC50 of test peptide).
Give the figure by itself; no unit, no explanation.

Supply measured binding affinity ratio (IC50 of standard peptide / IC50 of test peptide) of IGPFMKAVCVEVEKT (modifications not checked) in your reply. -0.0006

Supply measured binding affinity ratio (IC50 of standard peptide / IC50 of test peptide) of AGGLALLACAGLAYK (modifications not checked) in your reply. -0.0007

Supply measured binding affinity ratio (IC50 of standard peptide / IC50 of test peptide) of CGVWDEWSPCSVTCG (modifications not checked) in your reply. -0.0007

Supply measured binding affinity ratio (IC50 of standard peptide / IC50 of test peptide) of VKYLVIVFLIFFDLF (modifications not checked) in your reply. 0.003

Supply measured binding affinity ratio (IC50 of standard peptide / IC50 of test peptide) of CVEVEKTASCGVWDE (modifications not checked) in your reply. 0.0021
